- target of assay: EGR1 DB_H382E (human, UniProt P18146 331-430, H382E)
- procedure text: ITC
recorded metric: Kd
Put your answer as a value accompanied by its unit after it.

Note to self: Kd recorded for ZRE duplex (15-mer) (dsDNA) DNA 1: ATAGCGTGGGCGTTT DNA 2: AAACGCCCACGCTAT was 2300 nM
